Test system: HPPD polypeptides (wild-type SEQ ID NO:1 and mutants)
Details: in the presence of Cmpd. 2, 15 μM inhibitor, high substrate concentration; kapp normalized to kapp without inhibitor
quantity.name: Residual activity (%)
Hi! Could you send only the number? It should be in %, unit omitted.

Look up Residual activity: 16 (protein, mutant HPPD polypeptide) MADLYENPMGLMGFEFIEFASPTPGTLEPIFEIMGFTKVATHRSKNVHLYRQGEINLILNNEPNSIASYFAAEHGPSVCGMAFRVKDSQKAYNRALELGAQPIHIDTGPMELNLPAIKGIGGAPLYLIDRFGEGSSIYDIDFVYLEGVERNPVGAGLKVIDHLTHNVYRGRMVYWANFYEKLFNFREARYFDIKGEYTGLTSKAMSAPDGMIRIPLNEESSKGAGQIEEFLMQFNGEGIQHVAFLTDDLVKTWDALKKIGMRFMTAPSDSYYEMLEGRLPDHGEPVDQLQARGILLDGSSVEGDKRLLLQIFSETLMGPVFFEFIQRKGDDGFGPDSFKVLFESKERDQVRRGVLTAD
94

Look up Residual activity: 31 (protein, mutant HPPD polypeptide) MADLYENPMGLMGFEFIEFASPTPGTLEPIFEIMGFTKVATHRSKNVHLYRQGEINLILNNEPNSIASYFAAEHGPSVCGMAFRVKDSQKAYNRALELGAQPIHIDTGPMELNLPAIKGIGGAPLYLIDRFGEGSSIYDIDFVYLEGVERNPVGAGLKVIDHLTHNVYRGRMVYWANFYEKLFNFREARYFDIKGEYTGLTSKAMSAPDGMIRIPLNEESSKGAGQIEEFLMQFNGEGIQHVAFLTDDLVKTWDALKKIGMRFMTAPGDEYYEMLEGRLPDHGEPVDQLQARGILLDGSSVEGDKRLLLQIFSETLMGPVFFEFIQRKGDDGFGPHSFKVLFESVERDQVRRGVLTAD
95

These measurements were taken from patent US10597674B2.
